assay_remarks: Solubility at pH 1.2
Assay type: physicochemical
reported_conditions: buffer
Each record here notes measured solubility.

[
  {
    "smiles_input": "Cn1c(=O)c2[nH]c(-c3ccc(S(=O)(=O)NCCc4ccccn4)cc3)cc2n(C)c1=O",
    "solubility": "57 µg/mL"
  },
  {
    "smiles_input": "Cn1c(=O)c2[nH]c(-c3ccc(S(=O)(=O)N4CCN(Cc5ccccc5)CC4)cc3)cc2n(C)c1=O",
    "solubility": "70 µg/mL"
  }
]

---

target_entity: Adenosine receptor A1 (Homo sapiens)
Sequence (P30542 whole entry): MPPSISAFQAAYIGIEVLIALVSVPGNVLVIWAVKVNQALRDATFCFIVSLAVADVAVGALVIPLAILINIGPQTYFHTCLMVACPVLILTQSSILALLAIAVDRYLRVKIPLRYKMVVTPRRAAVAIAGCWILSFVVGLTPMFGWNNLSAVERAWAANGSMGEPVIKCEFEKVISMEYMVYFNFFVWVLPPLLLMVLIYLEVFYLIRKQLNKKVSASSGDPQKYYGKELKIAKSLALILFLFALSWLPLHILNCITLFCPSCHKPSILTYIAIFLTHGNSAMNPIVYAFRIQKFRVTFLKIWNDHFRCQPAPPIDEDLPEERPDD
assay_remarks: Displacement of [3H]DPCPX from human adenosine A1 receptor expressed in CHO cells
pIC50: −log10 of the molar value.
Where pIC50 equals or exceeds 7, the correct label is Fulfilled; where it does not, the label is Not fulfilled.

[
  {
    "smiles_input": "CCCn1c(=O)c2[nH]c(-c3ccc(S(=O)(=O)NC4CCN(Cc5ccccc5)CC4)cc3)cc2n(CCC)c1=O",
    "class_label": "Fulfilled"
  },
  {
    "smiles_input": "Cn1c(=O)c2[nH]c(-c3ccc(S(=O)(=O)NCCOc4ccccn4)cc3)cc2n(C)c1=O",
    "class_label": "Not fulfilled"
  },
  {
    "smiles_input": "CCCn1c(=O)c2[nH]c(-c3ccc(S(=O)(=O)NCc4ccc(OC)cn4)cc3)cc2n(C)c1=O",
    "class_label": "Fulfilled"
  },
  {
    "smiles_input": "CCn1c(=O)c2[nH]c(-c3ccc(S(=O)(=O)NC4CCN(Cc5ccc(F)cc5)CC4)cc3)cc2n(CC)c1=O",
    "class_label": "Not fulfilled"
  },
  {
    "smiles_input": "Cn1c(=O)c2[nH]c(-c3ccc(S(=O)(=O)N4CCN(Cc5ccccc5)CC4)cc3)cc2n(C)c1=O",
    "class_label": "Not fulfilled"
  },
  {
    "smiles_input": "Cn1c(=O)c2[nH]c(-c3ccc(S(=O)(=O)N4CCN(Cc5ccc(Br)cc5)CC4)cc3)cc2n(C)c1=O",
    "class_label": "Not fulfilled"
  }
]
